assay: gradient 5% acetonitrile 3 min, to 50% in 2 min, to 85% in 15 min, held 3 min, 100 µL/min; conditions: column: Zorbax Extend-C18 2.1 x 50 mm; eluents: water / acetonitrile, 0.1% formic acid
So basically, if RP-LC retention time comes in under 700 s it's satisfied, and if it's 700 s or more it's not satisfied.

{"COMPOUND": "CCOc1ccc(-c2noc(Cn3c(=O)n(-c4ccc(C)cc4)c(=O)c4sccc43)n2)cc1OC", "CATEGORY_LABEL": "not satisfied"}

[Q] Please state whether RP-LC retention time is below 700 s for CCC(=O)N1CCC(Cc2noc(C3CC3)n2)C1 (centres undefined)
[A] satisfied

[Q] Does this compound meet the criterion RP-LC retention time < 700 s? CC(C)Cc1noc(C2(F)CCN(S(=O)(=O)c3ccccc3Cl)CC2)n1
[A] satisfied

[Q] Does the reported RP-LC retention time of the following compound sit strictly below 700 s? CC1Oc2ccccc2N(CC(=O)N2CCN(c3cc(=O)n(C)c(=O)n3C)CC2)C1=O (centres undefined)
[A] satisfied

[Q] Given Cc1ccc2oc(C(=O)NCc3c(F)cccc3F)cc2n1 , is recorded RP-LC retention time strictly lower than 700 s?
[A] satisfied

[Q] A record lists COc1ccc(-n2ccc(=O)c(-c3nc(-c4ccc(OC)c(OC)c4)no3)n2)cc1 . Is its RP-LC retention time below 700 s?
[A] not satisfied

[Q] Is 700 s strictly greater than the compound's reported RP-LC retention time? compound: O=C(Cc1cccc(F)c1)N1CCc2cc(-c3ccno3)ccc21
[A] not satisfied

###

assay: gradient 5% acetonitrile 3 min, to 50% in 2 min, to 85% in 15 min, held 3 min, 100 µL/min; settings: column: Zorbax Extend-C18 2.1 x 50 mm; eluents: water / acetonitrile, 0.1% formic acid
Below, each of the molecules is paired with its reported RP-LC retention time value.
Field format: number, assumed s, no unit text.

{"CHEM_SMILES": "O=C(NCC1(c2cccs2)CC1)c1ccsc1", "UNITS_LABEL": "s", "VAL": 791}
{"CHEM_SMILES": "O=C(Cn1cnc2nc3c(cc2c1=O)CCCC3)Nc1cccc2c1CCCC2", "UNITS_LABEL": "s", "VAL": 808}
{"CHEM_SMILES": "Cc1cc2nc(C)c(=O)n(CC(=O)NCCc3c[nH]c4ccccc34)c2cc1C", "UNITS_LABEL": "s", "VAL": 814}
{"CHEM_SMILES": "CCc1nc2onc(C)c2c(=O)n1CC(=O)NCCC1=CCCCC1", "UNITS_LABEL": "s", "VAL": 899}
{"CHEM_SMILES": "CCN1c2ccc(F)cc2C(=O)NC12CCN(C(=O)c1ccc(F)c(F)c1)CC2", "UNITS_LABEL": "s", "VAL": 822}

[Q] Report RP-LC retention time for CCCn1cc(S(=O)(=O)Nc2ccc(C#N)cc2)c2cccnc21 please.
[A] 844

[Q] # RP-LC retention time lookup, item CN1c2ccc(F)cc2C(=O)NC12CCN(C(=O)c1ccccc1Cl)CC2
[A] 751

[Q] Fill in the blank: the reported RP-LC retention time of CCn1c(=O)sc2cc(S(=O)(=O)N3CCC(C(=O)Nc4ccccc4OC)CC3)ccc21 is ____.
[A] 917

###

assay: gradient 5% acetonitrile 3 min, to 50% in 2 min, to 85% in 15 min, held 3 min, 100 µL/min; conditions: column: Zorbax Extend-C18 2.1 x 50 mm; eluents: water / acetonitrile, 0.1% formic acid
RP-LC retention time under 800 s gets rule met, anything at or over 800 s gets rule not met.

Would you please look over these solved cases?
{"MOLECULE": "CC(NC(=O)c1ccccc1)c1nc(-c2ccc3c(c2)nnn3C)no1 (configuration not stated)", "CATEGORY_LABEL": "rule met"}
{"MOLECULE": "COCCN1C(=O)[C@H]2CN(Cc3cccc(Br)c3)C[C@H]2C1=O", "CATEGORY_LABEL": "rule met"}
{"MOLECULE": "CCCCN(CCCC)c1nc(-c2ccncc2)nc2ccccc12", "CATEGORY_LABEL": "rule not met"}

[Q] I wonder whether Cc1c(NC(=O)C2CCC2)c(=O)n(-c2ccccc2)n1C has RP-LC retention time below 800 s. Can you tell?
[A] rule met

[Q] Lab note: confirm whether the reported RP-LC retention time for this molecule is below 800 s, equality not counting. molecule: CCc1ccc(CNC(=O)C2CCCN(c3ccc(=O)n(-c4cccc(F)c4)n3)C2)cc1 (configuration not stated)
[A] rule not met

[Q] Please check: RP-LC retention time for Nc1cc(C2CCN(C(=O)Nc3ccc(F)c(Cl)c3)CC2)no1 , strictly under 800 s or not?
[A] rule met

[Q] Hello, I'm reviewing records and need to know if RP-LC retention time of O=C(c1ccc(Cl)cc1)N1CCC2(C1)C(=O)Nc1ccccc12 (configuration not stated) is below 800 s. Could you check?
[A] rule met

[Q] Please let me know if COc1ccc(C2CC(=O)c3cnn(-c4nc5ccccc5[nH]4)c3C2)c(OC)c1 (configuration not stated) shows RP-LC retention time below 800 s.
[A] rule met

###

assay: gradient 5% acetonitrile 3 min, to 50% in 2 min, to 85% in 15 min, held 3 min, 100 µL/min; conditions: column: Zorbax Extend-C18 2.1 x 50 mm; eluents: water / acetonitrile, 0.1% formic acid
Measured RP-LC retention time accompanies every entry in the list below.
// units = s; emit number, no label

The following compounds have reported results that may help.
{"COMPOUND": "Cc1cc2[nH]c(C(=O)Nc3ccc(F)c(F)c3F)c(CN3CCOCC3)c2s1", "ENDPOINT_NAME": "RP-LC retention time", "UNITS_LABEL": "s", "VAL": 743}
{"COMPOUND": "CCCCN1C(=O)c2ccccc2C(C(=O)NCc2ccncc2)C12CCCCC2 (stereo unspecified)", "ENDPOINT_NAME": "RP-LC retention time", "UNITS_LABEL": "s", "VAL": 662}
{"COMPOUND": "CCOC(=O)c1ccc(NC(=O)CN2CCN(Cc3ccccc3)C(=O)C2=O)cc1", "ENDPOINT_NAME": "RP-LC retention time", "UNITS_LABEL": "s", "VAL": 766}
{"COMPOUND": "CC(C)CCN1N=C(C(=O)N2CCOCC2)S(=O)(=O)c2ccc(Cl)cc21", "ENDPOINT_NAME": "RP-LC retention time", "UNITS_LABEL": "s", "VAL": 957}
{"COMPOUND": "CCn1nc(CNC(=O)c2ccc(Br)o2)c2ccccc21", "ENDPOINT_NAME": "RP-LC retention time", "UNITS_LABEL": "s", "VAL": 881}

[Q] Consider the compound shown here: CN(C)CCN(C)CCc1ccc(Cl)c(Cl)c1 What is its recorded RP-LC retention time?
[A] 639

[Q] // returns reported RP-LC retention time for input CCCCOc1ccccc1C(=O)N(Cc1ccc(Br)o1)C1CCS(=O)(=O)C1 (stereo unspecified)
[A] 991

[Q] What value of RP-LC retention time has been reported for the following compound? COc1ccc(C2(C(=O)N3CCc4nn(CC5CC5)c(=O)n4CC3)CC2)cc1
[A] 709

[Q] Fill in the blank: the reported RP-LC retention time of Cc1ccccc1OCC(=O)N1C[C@@H]2C[C@H](NC(=O)c3ccccc3)[C@H]1C2 is ____.
[A] 813

[Q] Looking for the measured RP-LC retention time of Cc1cc2n(n1)CCC(=O)N2CCCC(=O)NCc1ccc(C)o1 , can you help?
[A] 644

[Q] Record request: RP-LC retention time value, item O=C(c1ccc2cc[nH]c2c1)N1C[C@@H]2C[C@H]1C[C@@H]2NS(=O)(=O)c1ccccc1
[A] 766

[Q] Request the reported RP-LC retention time associated with Cc1cc(C)cc(NC(=O)Cn2c(C)cc(-c3nnc(C)o3)c2C)c1
[A] 843

[Q] Name the recorded RP-LC retention time for COc1cc(NC(=O)N2CCC(N3CCN(Cc4ccc(C)cc4)C(=O)C3=O)CC2)cc(OC)c1 .
[A] 758

###

assay: gradient 5% acetonitrile 3 min, to 50% in 2 min, to 85% in 15 min, held 3 min, 100 µL/min; conditions: column: Zorbax Extend-C18 2.1 x 50 mm; eluents: water / acetonitrile, 0.1% formic acid
Labelling field: enter rule met if recorded RP-LC retention time is less than 900 s. Enter rule not met if it equals or exceeds that cut-off.

See these solved cases before continuing.
{"COMPOUND": "CCOC(=O)C1CCN(C(=O)CCc2cc3cc(C)ccc3[nH]c2=O)CC1", "CATEGORY_LABEL": "rule met"}
{"COMPOUND": "COC(=O)c1cccc(Nc2c(-c3ccc(C)cc3)nc3cnc(Br)cn23)c1", "CATEGORY_LABEL": "rule not met"}
{"COMPOUND": "O=C(NCCc1c[nH]c2ccc(Cl)cc12)c1cccc(Cn2c(=O)c3cccn3c3cccnc32)c1", "CATEGORY_LABEL": "rule not met"}
{"COMPOUND": "O=C(O)c1cc2c(s1)CCN(C(=O)c1ccc(Cl)cc1)C2", "CATEGORY_LABEL": "rule met"}
{"COMPOUND": "CCCNC(=O)c1nc2cc(C)c(C)cc2[nH]c1=O", "CATEGORY_LABEL": "rule met"}

[Q] hey, is RP-LC retention time for O=C1[C@H]2CN(Cc3cccc(F)c3)C[C@H]2C(=O)N1CCc1ccccc1 lower than 900 s or not?
[A] rule met

[Q] Input CCc1cc(=O)n(CC(=O)Nc2cccc(Cl)c2)c(N2CCOCC2)n1 ; condition: RP-LC retention time strictly below 900 s. Does it hold?
[A] rule met

[Q] Threshold test, RP-LC retention time < 900 s: Cc1cccc(N2CCN(C(=O)C3CCCN(c4ncnc5c4nc4n5CCCCC4)C3)CC2)c1C (configuration not stated)
[A] rule not met
